Quick reference: Pre-emergence herbicidal activity, damage score SETFA of the listed items.
system: a variety of test species; experiment: Pre-emergence herbicidal activity (Example 8a, Table 2); format: in vivo; design: key: 0 = no damage to plant, 5 = total damage to plant; conditions: SETFA; application pre-emergence; rate 1000 g/ha; evaluated after 13 days
Enter the number alone.

compound: CC1=C(Cl)C(=O)N(c2nn(C)c(C(C)(C)C)c2C#N)C1O (stereo not shown) [Compound D2]
testedSystem: a variety of test species
recordedValue: 4

So what does the record say about Pre-emergence herbicidal activity, damage score SETFA for CCn1nc(N2C(=O)C(Cl)=C(C)C2O)cc1C(C)(C)C (stereo not shown) [Compound C2] ?
5

So what does the record say about Pre-emergence herbicidal activity, damage score SETFA for CCC1CCn2nc(N3C(=O)C(Cl)=C(C)C3O)cc21 (mixture of isomers) ?
5

So what does the record say about Pre-emergence herbicidal activity, damage score SETFA for CC1=C(Cl)C(=O)N(c2cc(C#CCC(C)C)n(C)n2)C1O (stereo not shown) ?
0
